Below is a list of entries, each paired with its recorded β-Cat FP Hill slope value.
# test-target: β-catenin (Homo sapiens, UniProt P35222)
# Sequence (P35222 whole entry): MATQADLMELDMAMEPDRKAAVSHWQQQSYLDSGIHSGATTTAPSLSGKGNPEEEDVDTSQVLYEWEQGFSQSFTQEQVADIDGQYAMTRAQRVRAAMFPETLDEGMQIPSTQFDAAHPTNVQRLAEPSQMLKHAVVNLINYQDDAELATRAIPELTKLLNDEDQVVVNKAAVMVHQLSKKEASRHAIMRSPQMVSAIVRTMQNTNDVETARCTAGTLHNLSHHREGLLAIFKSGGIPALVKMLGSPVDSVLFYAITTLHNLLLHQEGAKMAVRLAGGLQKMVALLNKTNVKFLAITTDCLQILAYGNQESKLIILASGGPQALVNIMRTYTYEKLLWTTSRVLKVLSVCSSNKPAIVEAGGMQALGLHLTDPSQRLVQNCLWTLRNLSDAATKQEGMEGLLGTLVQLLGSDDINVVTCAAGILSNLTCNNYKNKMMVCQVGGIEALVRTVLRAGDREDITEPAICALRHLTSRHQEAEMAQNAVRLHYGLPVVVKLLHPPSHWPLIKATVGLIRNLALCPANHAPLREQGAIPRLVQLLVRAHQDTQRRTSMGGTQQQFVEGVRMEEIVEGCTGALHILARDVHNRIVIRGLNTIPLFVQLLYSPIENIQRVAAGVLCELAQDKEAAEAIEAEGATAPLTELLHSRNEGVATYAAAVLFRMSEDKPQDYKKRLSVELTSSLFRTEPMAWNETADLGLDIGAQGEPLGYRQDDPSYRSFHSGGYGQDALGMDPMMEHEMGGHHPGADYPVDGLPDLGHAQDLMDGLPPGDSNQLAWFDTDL
# test-summary: KD50 measurement using competitive fluorescence polarization (FP) with labelled TCF4
# Type: binding
# assay-setup: fluorescence polarization, β-catenin
Where a SMILES comes first, the peptide text is derived from it.
Give the value as a plain number.

Worked cases, β-Cat FP Hill slope given:
compound	measured-value
CC[C@H](C)[C@H](NC(=O)[C@H](CC(C)C)NC(=O)[C@H](Cc1ccccc1)NC(=O)[C@H](Cc1c[nH]c2ccccc12)NC(=O)[C@@H](N)CC(=O)O)C(=O)N[C@@H](CS)C(=O)N[C@@H](Cc1ccccc1)C(=O)N[C@@H](Cc1c[nH]c2ccccc12)C(=O)NCC(=O)O [compound 142] (H-DWFLICFWG-OH)	1.15
CC[C@H](C)[C@@H]1NC(=O)[C@H](CC(C)C)NC(=O)[C@H](Cc2ccccc2)NC(=O)[C@H](Cc2c[nH]c3ccccc23)NC(=O)[C@@H](NC(C)=O)CC(=O)NCCCC[C@@H](C(=O)NCC(=O)O)NC(=O)[C@H](Cc2c[nH]c3ccccc23)NC(=O)[C@H](Cc2ccccc2)NC(=O)[C@H](CS)NC1=O [compound 175] (HELM PEPTIDE1{[ac].D.W.F.L.I.C.F.W.K.G}$PEPTIDE1,PEPTIDE1,2:R3-10:R3$$$V2.0)	0.7
CC[C@H](C)[C@H](NC(=O)[C@H](Cc1c[nH]c2ccccc12)NC(=O)[C@@H](N)CCSC)C(=O)NC(C)(CC(C)C)C(=O)N[C@H](C(=O)N[C@@H](CS)C(=O)N[C@@H](Cc1ccccc1)C(=O)N[C@@H](Cc1c[nH]c2ccccc12)C(=O)NCC(=O)O)[C@@H](C)CC (stereo partly drawn) [compound 130] (HELM PEPTIDE1{M.W.I.[CC(C)CC(C)(N[*:1])C(=O)[*:2]].I.C.F.W.G}$$$$V2.0)	0.72
CC[C@H](C)[C@H](NC(=O)[C@H](CC(C)C)NC(=O)[C@H](Cc1ccccc1)NC(=O)[C@H](Cc1c[nH]c2ccccc12)NC(C)=O)C(=O)N[C@@H](CS)C(=O)N[C@@H](Cc1ccccc1)C(=O)N[C@@H](Cc1c[nH]c2ccccc12)C(=O)NCC(=O)O [compound 194] (Ac-WFLICFWG-OH)	3
CC[C@H](C)[C@H](NC(=O)[C@H](CC(C)C)NC(=O)[C@@H](NC(=O)[C@H](Cc1c[nH]c2ccccc12)NC(=O)[C@H](CCSC)NC(=O)[C@@H](N)Cc1c[nH]cn1)[C@@H](C)CC)C(=O)N[C@@H](CO)C(=O)N[C@@H](Cc1ccccc1)C(=O)N[C@@H](Cc1c[nH]c2ccccc12)C(=O)NCC(=O)O [compound 123] (H-HMWILISFWG-OH)	1.07

Q: Provide β-catenin (Homo sapiens, UniProt P35222) β-Cat FP Hill slope reading for CC[C@H](C)[C@H](NC(=O)[C@@H](N)CC(C)C)C(=O)N[C@@H](CO)C(=O)N[C@@H](Cc1ccccc1)C(=O)N[C@@H](Cc1c[nH]c2ccccc12)C(=O)NCC(=O)O [compound 237] (H-LISFWG-OH) .
Ans: 0.72

====

# test-target: β-catenin (Homo sapiens, UniProt P35222)
# test-summary: KD50 measurement using competitive fluorescence polarization (FP) with labelled TCF4
# Assay type: binding
# assay-setup: fluorescence polarization, β-catenin
Where a SMILES comes first, the peptide text is derived from it.
value-type: β-Cat FP Hill slope
Output: the number by itself.

Sample answers from the record:
compound	test-target	β-Cat FP Hill slope
CC[C@H](C)[C@@H]1NC(=O)[C@H](CC(C)C)NC(=O)[C@H](Cc2ccccc2)NC(=O)[C@H](Cc2c[nH]c3ccccc23)NC(=O)[C@@H](N)CCCCNC(=O)CC[C@@H](C(=O)N[C@@H](Cc2c[nH]c3ccccc23)C(=O)NCC(=O)O)NC(=O)[C@H](CS)NC1=O [compound 181] (HELM PEPTIDE1{K.W.F.L.I.C.E.W.G}$PEPTIDE1,PEPTIDE1,1:R3-7:R3$$$V2.0)	β-catenin (Homo sapiens, UniProt P35222)	1.15
CC[C@H](C)[C@H](NC(=O)[C@H](CC(C)C)NC(=O)[C@H](Cc1ccccc1)NC(=O)[C@H](Cc1c[nH]c2ccccc12)NC(=O)[C@H](CCSC)NC(C)=O)C(=O)N[C@@H](CO)C(=O)N[C@@H](Cc1ccccc1)C(=O)N[C@@H](Cc1c[nH]c2ccccc12)C(=O)NCC(=O)O [compound 219] (Ac-MWFLISFWG-OH)	β-catenin (Homo sapiens, UniProt P35222)	0.86

Q: Provide measured β-Cat FP Hill slope value, entry: CC[C@H](C)[C@H](NC(=O)[C@H](CC(C)C)NC(=O)[C@H](Cc1ccccc1)NC(=O)[C@H](Cc1c[nH]c2ccccc12)NC(=O)[C@@H](N)CCSC)C(=O)N[C@@H](CO)C(=O)N[C@@H](Cc1ccccc1)C(=O)N[C@@H](Cc1c[nH]c2ccccc12)C(=O)N(C)[C@@H](C)C(=O)NCC(=O)O [compound 45] (HELM PEPTIDE1{M.W.F.L.I.S.F.W.[meA].G}$$$$V2.0)
Ans: 0.9

src = patent US12441768B2
